Just for reference, patent US12103919B2 is where these values come from.

Biological target: WIZ (Homo sapiens, UniProt O95785+Q96SW2)
Construct: expressed in transfected cells
Sequence (O95785 whole entry): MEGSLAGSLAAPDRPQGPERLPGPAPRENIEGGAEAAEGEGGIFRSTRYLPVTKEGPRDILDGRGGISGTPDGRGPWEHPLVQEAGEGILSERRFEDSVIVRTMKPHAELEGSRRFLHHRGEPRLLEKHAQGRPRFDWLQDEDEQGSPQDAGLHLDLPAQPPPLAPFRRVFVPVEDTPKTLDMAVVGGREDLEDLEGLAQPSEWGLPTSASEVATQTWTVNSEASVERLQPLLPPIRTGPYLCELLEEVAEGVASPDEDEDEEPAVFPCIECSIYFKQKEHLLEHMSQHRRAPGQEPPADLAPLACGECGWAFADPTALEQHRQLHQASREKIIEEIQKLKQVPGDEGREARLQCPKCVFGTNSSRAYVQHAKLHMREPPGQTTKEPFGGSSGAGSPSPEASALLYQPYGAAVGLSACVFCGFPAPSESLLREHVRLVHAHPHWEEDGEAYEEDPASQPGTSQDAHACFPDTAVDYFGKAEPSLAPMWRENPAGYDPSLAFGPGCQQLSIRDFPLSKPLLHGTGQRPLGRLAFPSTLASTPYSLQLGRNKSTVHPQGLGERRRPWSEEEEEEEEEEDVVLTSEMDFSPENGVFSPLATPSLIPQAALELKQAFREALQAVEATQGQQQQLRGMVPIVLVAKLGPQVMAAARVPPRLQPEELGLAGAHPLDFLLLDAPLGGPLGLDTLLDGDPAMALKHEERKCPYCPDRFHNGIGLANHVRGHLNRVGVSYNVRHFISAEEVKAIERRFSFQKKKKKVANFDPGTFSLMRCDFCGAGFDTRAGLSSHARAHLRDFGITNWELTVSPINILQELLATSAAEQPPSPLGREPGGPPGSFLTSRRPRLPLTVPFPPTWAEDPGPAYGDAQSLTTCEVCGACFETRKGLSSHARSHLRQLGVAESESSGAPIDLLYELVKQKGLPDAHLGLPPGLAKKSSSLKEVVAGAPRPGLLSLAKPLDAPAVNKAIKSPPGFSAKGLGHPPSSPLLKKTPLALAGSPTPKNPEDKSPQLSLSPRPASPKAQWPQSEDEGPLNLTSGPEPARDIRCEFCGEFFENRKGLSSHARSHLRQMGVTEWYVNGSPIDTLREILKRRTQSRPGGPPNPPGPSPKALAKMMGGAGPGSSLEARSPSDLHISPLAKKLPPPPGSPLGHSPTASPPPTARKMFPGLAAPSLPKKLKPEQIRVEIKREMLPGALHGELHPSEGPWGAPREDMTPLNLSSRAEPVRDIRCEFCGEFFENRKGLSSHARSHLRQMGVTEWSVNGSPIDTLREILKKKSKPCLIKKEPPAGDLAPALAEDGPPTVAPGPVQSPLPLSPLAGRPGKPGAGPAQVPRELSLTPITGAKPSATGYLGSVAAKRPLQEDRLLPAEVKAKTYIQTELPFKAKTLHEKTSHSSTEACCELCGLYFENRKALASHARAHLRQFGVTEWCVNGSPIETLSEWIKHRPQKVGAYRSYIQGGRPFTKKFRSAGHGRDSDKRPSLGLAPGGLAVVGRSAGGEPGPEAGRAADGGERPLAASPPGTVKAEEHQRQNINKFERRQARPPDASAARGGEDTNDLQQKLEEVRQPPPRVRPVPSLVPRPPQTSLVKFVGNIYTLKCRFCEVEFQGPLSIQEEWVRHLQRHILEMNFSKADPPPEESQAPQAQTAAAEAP
Sequence (Q96SW2 whole entry): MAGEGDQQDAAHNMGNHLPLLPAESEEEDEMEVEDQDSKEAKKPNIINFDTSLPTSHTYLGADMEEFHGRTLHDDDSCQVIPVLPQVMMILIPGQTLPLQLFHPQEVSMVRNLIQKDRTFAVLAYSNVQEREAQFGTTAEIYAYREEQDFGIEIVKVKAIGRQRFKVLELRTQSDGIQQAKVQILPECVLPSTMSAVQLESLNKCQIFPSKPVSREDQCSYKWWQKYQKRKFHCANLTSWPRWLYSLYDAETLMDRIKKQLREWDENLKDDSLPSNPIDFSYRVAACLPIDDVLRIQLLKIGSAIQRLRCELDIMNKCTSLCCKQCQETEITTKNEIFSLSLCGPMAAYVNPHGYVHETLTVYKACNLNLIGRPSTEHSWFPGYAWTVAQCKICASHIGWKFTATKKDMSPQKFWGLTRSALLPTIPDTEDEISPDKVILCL
Sequence (Q16531 whole entry partner): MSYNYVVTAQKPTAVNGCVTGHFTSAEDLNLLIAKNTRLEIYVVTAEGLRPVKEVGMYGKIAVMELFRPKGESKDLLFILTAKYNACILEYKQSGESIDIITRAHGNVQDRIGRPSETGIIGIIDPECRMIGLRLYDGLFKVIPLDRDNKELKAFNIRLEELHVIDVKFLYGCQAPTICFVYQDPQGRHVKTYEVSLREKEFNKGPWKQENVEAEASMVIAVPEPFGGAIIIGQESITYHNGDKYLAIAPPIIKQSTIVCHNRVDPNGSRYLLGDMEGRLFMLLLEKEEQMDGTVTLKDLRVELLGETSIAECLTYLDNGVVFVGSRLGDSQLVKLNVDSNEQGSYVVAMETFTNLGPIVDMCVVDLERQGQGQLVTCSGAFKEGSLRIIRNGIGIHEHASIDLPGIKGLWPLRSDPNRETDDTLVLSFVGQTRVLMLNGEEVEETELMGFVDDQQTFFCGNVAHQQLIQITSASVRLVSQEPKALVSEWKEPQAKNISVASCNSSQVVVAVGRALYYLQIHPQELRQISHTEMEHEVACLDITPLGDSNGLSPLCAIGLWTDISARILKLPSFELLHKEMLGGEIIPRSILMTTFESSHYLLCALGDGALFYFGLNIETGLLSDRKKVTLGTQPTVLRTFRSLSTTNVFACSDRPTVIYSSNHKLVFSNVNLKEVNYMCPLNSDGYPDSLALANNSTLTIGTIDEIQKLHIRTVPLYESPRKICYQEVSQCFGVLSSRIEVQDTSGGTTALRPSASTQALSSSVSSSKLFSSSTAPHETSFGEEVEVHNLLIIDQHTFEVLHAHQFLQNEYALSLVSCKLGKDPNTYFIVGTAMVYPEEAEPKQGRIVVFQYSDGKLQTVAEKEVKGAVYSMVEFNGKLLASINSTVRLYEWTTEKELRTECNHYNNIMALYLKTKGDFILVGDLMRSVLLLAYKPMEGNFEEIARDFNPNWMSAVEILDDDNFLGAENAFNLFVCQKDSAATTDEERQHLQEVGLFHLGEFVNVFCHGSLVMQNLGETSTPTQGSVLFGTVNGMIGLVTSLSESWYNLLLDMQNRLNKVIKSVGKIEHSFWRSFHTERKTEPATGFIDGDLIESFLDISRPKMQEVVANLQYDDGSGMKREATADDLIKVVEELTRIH
Assay: Quantification of WIZ protein levels in HiBit tag fusion protein assay (293T cells)
Assay type: cell-based
Conditions: WIZ HiBit assay in 293T cells, about 18 hours, 10-point 5-fold dilution, top 25 μM; read-out: WIZ AC50
Param label: returns t when DC50 < 80 nM, returns f otherwise, including exact equality.

- COMPOUND: "CCN1CC[C@H](F)[C@@H](Oc2ccc3c(c2)CN(C2CCC(=O)NC2=O)C3=O)C1 (relative stereo)"
  CLASSIFICATION: "t"
- COMPOUND: "CC1(C)CCC(Oc2ccc3c(c2)CN(C2CCC(=O)NC2=O)C3=O)CN1 (stereo not drawn)"
  CLASSIFICATION: "f"
- COMPOUND: "O=C1CCC(N2Cc3cc(O[C@@H]4CCCN(CC5COC5)C4)ccc3C2=O)C(=O)N1 (stereo partly drawn)"
  CLASSIFICATION: "f"
- COMPOUND: "C[C@@H]1C[C@@H](Oc2ccc3c(c2)CN(C2CCC(=O)NC2=O)C3=O)CN(C)C1 (stereo partly drawn)"
  CLASSIFICATION: "t"
- COMPOUND: "CCO[C@@H]1C[C@@H](Oc2ccc3c(c2)CN(C2CCC(=O)NC2=O)C3=O)CN(CC)C1 (stereo partly drawn)"
  CLASSIFICATION: "t"

Next:
Ask: Determine if CC(C)N1C[C@H](C)C[C@@H](Oc2ccc3c(c2)CN(C2CCC(=O)NC2=O)C3=O)C1 (stereo partly drawn) shows DC50 strictly lower than 80 nM.
Result: t

----------
Molecular target: WIZ (Homo sapiens, UniProt O95785+Q96SW2)
Construct: expressed in transfected cells
Assay: Quantification of WIZ protein levels in HiBit tag fusion protein assay (293T cells)
Format: cell-based
Conditions: WIZ HiBit assay in 293T cells, about 18 hours, 10-point 5-fold dilution, top 25 μM; read-out: WIZ AC50
Protocol: The HiBit system from Promega was used to develop high-throughput and quantitative assays to measure changes in WIZ protein levels in response to compounds. […] The complementary fragment of Nanoluciferase (known as LgBit, from Promega), was added to the HiBit tag to form an active Nanoluciferase enzyme whose activity can be precisely measured. In this way, the levels of a fusion protein with the HiBit tag can be quantified in cell lysates. […]
RECORDED_METRIC: DC50
Give the figure together with its unit, number first.

- COMPOUND: "O=C1CCC(N2Cc3cc(O[C@@H]4CCCN(C5CCOCC5)C4)ccc3C2=O)C(=O)N1 (stereo partly shown)"
  DC50: "0.033 µM"
- COMPOUND: "CCN1C[C@H](OC)C[C@@H](Oc2ccc3c(c2)CN(C2CCC(=O)NC2=O)C3=O)C1 (single isomer, unassigned) [Example 65-1]"
  DC50: "0.0014 µM"

Ask: I am curious: what DC50 value has been reported for O=C1CCC(N2Cc3cc(O[C@@H]4CCCN(C5CC6(CCOCC6)C5)C4)ccc3C2=O)C(=O)N1 (stereo partly shown) ?
Result: 0.084 µM

Ask: I am curious: what DC50 value has been reported for O=C1CCC(N2Cc3cc(O[C@@H]4CCCN(CC5CCCCC5)C4)ccc3C2=O)C(=O)N1 (stereo partly shown) ?
Result: 0.031 µM

Ask: I am curious: what DC50 value has been reported for CCCN1CCC[C@@H](Oc2ccc3c(c2)CN(C2CCC(=O)NC2=O)C3=O)C1 (stereo partly shown) ?
Result: 0.028 µM

Ask: I am curious: what DC50 value has been reported for CCN1CC[C@H](Oc2ccc3c(c2)CN(C2CCC(=O)NC2=O)C3=O)C1 (stereo partly shown) ?
Result: 0.77 µM

Ask: I am curious: what DC50 value has been reported for C[C@@H]1C[C@@H](Oc2ccc3c(c2)CN(C2CCC(=O)NC2=O)C3=O)CN(S(C)(=O)=O)C1 (stereo partly shown) ?
Result: 0.0234 µM
